Taken from patent US20260166159A1.

- System: phosphorylated ERK
- Protocol notes: KRAS G12D-mediated phosphorylated ERK inhibition assay (AlphaLISA), A427
- Assay type: cell-based
- Measurement conditions: Homo sapiens, A-427; A427 cells; class symbols; read-out: pERK (A427) IC50
pIC50: −log10 of the molar value.
Recorded pIC50, one value per entry.
Property name: pIC50

Compound: C#Cc1c(F)ccc2cc(O)cc(-c3ncc4c(N5CC6CCC(C5)N6)nc(OCC5(CN6CCN(CC7CCC8(CC7)CCN(C(=O)c7ccc(Br)c(N9CCC(=O)NC9=O)c7)CC8)CC6)CC5)nc4c3F)c12 [Example 29]
Recorded measurement: ≥ 7.30
--
Compound: C#Cc1c(F)ccc2cc(O)cc(-c3ncc4c(N5CC6CCC(C5)N6)nc(OCC5(CN6CCN(CC7CCC8(CC7)CCN(C(=O)c7ccc(OC)c(N9CCC(=O)NC9=O)c7)CC8)CC6)CCC5)nc4c3F)c12 [Example 25]
Recorded measurement: 6.30 to 7.00
--
Compound: Cc1ccc2[nH]ncc2c1-c1ncc2c(N3CC4CCC(C3)N4)nc(OCC3(CN4CCN(CC5CCC6(CC5)CCN(C(=O)c5ccc(Cl)c(N7CCC(=O)NC7=O)c5)CC6)CC4)CC3)nc2c1F [Example 16]
Recorded measurement: 5.00 to 6.00
--
Compound: C#Cc1c(F)ccc2cc(O)cc(-c3ncc4c(N5CC6CCC(C5)N6)nc(OCC5(CN6CCN(CC7CCC8(CC7)CCN(C(=O)c7ccc(Cl)c(N9CCC(=O)N(C)C9=O)c7)CC8)CC6)CC5)nc4c3F)c12 [Example 17]
Recorded measurement: ≥ 7.30
--
Compound: C#Cc1c(F)ccc2cc(O)cc(-c3ncc4c(N5CC6CCC(C5)N6)nc(OCC5(CN6CCC(CCOCC7CCN(C(=O)c8ccc(Cl)c(N9CCC(=O)NC9=O)c8)CC7)CC6)CC5)nc4c3F)c12 [Example 10]
Recorded measurement: ≥ 7.30
--
Compound: CCc1c(F)ccc2cc(O)cc(-c3ncc4c(N5CC6CCC(C5)N6)nc(OCC5(CN6CCN(CCCC7CCN(C(=O)c8ccc(Cl)c(N9CCC(=O)NC9=O)c8)CC7)CC6)CC5)nc4c3F)c12 [Example 22]
Recorded measurement: ≥ 7.30
--
Compound: C#Cc1c(F)ccc2cc(O)cc(-c3ncc4c(N5CC6CCC(C5)N6)nc(OCC5(CN6CCN(CCCC7CCN(C(=O)c8ccc(OC)c(N9CCC(=O)NC9=O)c8)CC7)CC6)CC5)nc4c3F)c12 [Example 8]
Recorded measurement: ≥ 7.30
--
Compound: C#Cc1c(F)ccc2cc(O)cc(-c3ncc4c(N5CC6CCC(C5)N6)nc(OCC5(CN6CCN(CCCC7CCC8(CC7)CCN(C(=O)c7ccc(Cl)c(N9CCC(=O)NC9=O)c7)CC8)CC6)CC5)nc4c3F)c12 [Example 7]
Recorded measurement: ≥ 7.30

###

Recorded Dmax, one value per entry.
- Experimental system: KRAS-G12D (Homo sapiens, UniProt P01116, G12D)
- Construct: endogenous in cells; host or cells: A-427 (ATCC), AGS, AsPc-1, Panc 04.03
- Sequence (P01116 1-188 isoform P01116-2 G12D): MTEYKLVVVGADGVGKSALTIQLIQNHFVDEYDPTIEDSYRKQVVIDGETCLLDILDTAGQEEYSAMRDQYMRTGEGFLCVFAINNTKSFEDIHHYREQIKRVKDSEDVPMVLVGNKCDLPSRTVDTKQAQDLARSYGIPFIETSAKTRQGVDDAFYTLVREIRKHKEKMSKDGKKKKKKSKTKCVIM
- Protocol notes: KRAS-G12D degradation assay (Western Blot), A-427 cells
- Type: cell-based
- Measurement conditions: A-427; A427 cells, 24 h; class symbols

Compound: C#Cc1c(F)ccc2cc(O)cc(-c3ncc4c(N5CC6CCC(C5)N6)nc(OCC(C)(C)CN5CCN(CCCC6CCN(C(=O)c7ccc(Cl)c(N8CCC(=O)NC8=O)c7)CC6)CC5)nc4c3F)c12 [Example 23]
Dmax: 30 to 50%
//
Compound: C#Cc1c(F)ccc2cc(O)cc(-c3ncc4c(N5CC6CCC(C5)N6)nc(OC[C@@H]5CCCN5CC5CCN(CCC(=O)N[C@H](C(=O)N6C[C@H](O)C[C@H]6C(=O)NCc6ccc(-c7scnc7C)cc6)C(C)(C)C)CC5)nc4c3F)c12 [Example 35]
Dmax: < 30%
